- assay system: CRTH2 (Homo sapiens, UniProt Q9Y5Y4)
- Sequence (Q9Y5Y4 1-395): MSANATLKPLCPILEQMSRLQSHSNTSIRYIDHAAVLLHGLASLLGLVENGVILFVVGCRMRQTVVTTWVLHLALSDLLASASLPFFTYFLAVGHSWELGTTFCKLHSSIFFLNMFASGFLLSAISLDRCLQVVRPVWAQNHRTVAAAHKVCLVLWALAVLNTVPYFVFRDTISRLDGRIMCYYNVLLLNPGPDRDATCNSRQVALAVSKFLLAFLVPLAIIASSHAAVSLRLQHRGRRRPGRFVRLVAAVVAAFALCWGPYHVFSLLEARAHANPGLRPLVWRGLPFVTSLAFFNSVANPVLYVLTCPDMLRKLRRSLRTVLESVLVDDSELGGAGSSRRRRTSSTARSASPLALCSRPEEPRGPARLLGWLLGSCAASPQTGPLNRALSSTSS
- protocol: Radioligand binding Scintillation Proximity Assay ([3H]PGD2, hCRTH2-CHO cell membranes)
- Set-up: host or cells: CHO cells
- setup conditions: 1.5 nM [3H]PGD2, hCRTH2-CHO cell membranes, SPA
measure: IC50 (nM)

1) Cc1ccc(S(=O)(=O)CC(C)C)cc1C#Cc1cc(Cl)ccc1OCC(=O)O [Example 53]    5
2) CCCS(=O)(=O)c1cccc(C#Cc2c(Cl)cccc2OCC(=O)O)c1 [Example 74]    70
3) N#Cc1ccc(F)c(C#Cc2cc(Cl)ccc2OCC(=O)O)c1 [Example 21]    46
4) Cc1ccc(S(=O)(=O)CCc2ccccc2)cc1C#Cc1cc(C#N)ccc1OCC(=O)O [Example 96]    7
5) CCCS(=O)(=O)c1cccc(C#Cc2cc(-c3ccsc3)ccc2OCC(=O)O)c1 [Example 133]    23

A = CCCS(=O)(=O)c1cccc(C#Cc2cc(Cl)cnc2OCC(=O)O)c1 [Example 128]
B = Cc1ccc(S(=O)(=O)N(C)C)cc1C#Cc1cc(Cl)ccc1OCC(=O)O [Example 83]
C = Cc1ccc(S(=O)(=O)N(C)CCN(C)C)cc1C#Cc1cc(Cl)ccc1OCC(=O)O [Example 122]
D = CCS(=O)(=O)c1ccc(F)c(C#Cc2cc(Cl)ccc2OCC(=O)O)c1 [Example 104]
Arrange the 4 compounds by rising IC50, starting with the smallest. Please write the labels in the order that was asked for.
D, B, A, C
(D: 3 nM, B: 7 nM, A: 63 nM, C: 452 nM)

A = CN(C)S(=O)(=O)c1cncc(C#Cc2cc(C#N)ccc2OCC(=O)O)c1 [Example 67]
B = Cc1ccc(S(=O)(=O)NC(C)C)cc1C#Cc1cc(Cl)ccc1OCC(=O)O [Example 86]
C = Cc1ccc(S(=O)(=O)C(C)C)cc1C#Cc1cc(Cl)ccc1OCC(=O)O [Example 51]
D = O=C(O)COc1ccc(Cl)cc1C#Cc1cccc(CO)c1F [Example 28]
Arrange the 4 compounds by rising IC50, starting with the smallest. Please write the labels in the order that was asked for.
B, C, D, A

A = O=C(O)COc1ccc(Cl)cc1C#Cc1ccccc1 [Example 1]
B = Cc1ccc(S(=O)(=O)NC(C)(C)C)cc1C#Cc1cc(Cl)ccc1OCC(=O)O [Example 85]
Of A and B , which carries the smaller reported IC50 figure? Record your answer as the label of the chosen record.
B
